measured target: HLA-E/B2M complex, refolded and biotinylated ([HLAE(hu)(22-305)]-Avitag + [B2M(h)(21-119)]) (human), P13747
assay info: cross-linking, 10-fold excess over [HLA-E+VL9], 4 h 37 C, LC-MS
measure: % cross-linking with HLA-E (%)

[[record]]
binder = "VMCPRTLFL (modifications not checked) [VL9-3 Cys(mSF)]"
measurement_unit = "%"
number = 73


P. VMAPRTCFL (modifications not checked) [VL9-7 Cys(mSF)]
Q. VMACRTLFL (modifications not checked) [VL9-4 Cys(mSF)]
Of P and Q , whose reported % cross-linking with HLA-E is numerically smaller? Please identify the chosen entry by its label.
P
